target: human ErbB2, full length, on cells (human, UniProt P04626 23-1255); assay: cell-based or functional assay
measurement.label: EC50 (ng/ml), inhibition of Heregulin-induced MCF7 cell proliferation (ng/mL)

binder	readout.unit	reported.value
monoclonal antibody 1.39 (antibody, V domains shown, Fully human IgG (gamma/kappa) from a XenoMouse XM3B-3 hybridoma; constant regions not tied to it; also called 1.39.1; 1.39.2) VH: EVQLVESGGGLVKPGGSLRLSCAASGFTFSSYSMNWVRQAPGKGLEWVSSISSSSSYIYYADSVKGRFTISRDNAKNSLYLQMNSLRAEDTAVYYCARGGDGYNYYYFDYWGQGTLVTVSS VL: DIVMTQSPDSLAVSLGERATITCKSSQSVFFRSNNKNCLAWYQQRPGQPPNLLIYWASSRESGVPDRFSGSGSGTDFALTISSLQTEDVAVYYCQQYFGSPFTFGPGTKVDIK	ng/mL	479

Measured values drawn from patent US20130089544A1 for this set.
